- System: human umbilical vein endothelial cells (HUVECs)
- TEST: Growth (Alamar Blue) assay on HUVEC, Example 5
- Assay type: cell-based
- CONDITION LABEL: agent alone
ENDPOINT NAME: IC50 (nM)
Unit nM implied. Number only.

// query Fill in reported IC50 for this entry: CC(C)[C@H]1C(=O)N[C@@H](CCCN=C(N)N)C(=O)NCC(=O)N[C@@H](CC(=O)O)C(=O)N[C@H](Cc2ccccc2)C(=O)N1C [Cilengitide, cyclo-(Arg-Gly-Asp-DPhe-NMeVal)]
// result 700

* * *

- TEST: Continuous infusion study pharmacokinetics (plasma)
- Assay type: in vivo, human
- CONDITION LABEL: human, plasma, iv, 1 mg/h, Rate 1 mg/h; 506 h; individual subjects; read-out: EMD 121974 Concentrations
ENDPOINT NAME: level at 506 h (ng/mL)
Unit ng/mL implied. Number only.

// query Fill in reported level at 506 h for this entry: CC(C)[C@H]1C(=O)N[C@@H](CCCN=C(N)N)C(=O)NCC(=O)N[C@@H](CC(=O)O)C(=O)N[C@H](Cc2ccccc2)C(=O)N1C [Cilengitide, cyclo-(Arg-Gly-Asp-DPhe-NMeVal)]
// result 94.4

* * *

- TEST: Continuous infusion study pharmacokinetics (plasma)
- Assay type: in vivo, human
- CONDITION LABEL: human, plasma, iv, 2 mg/h, Rate 2 mg/h; 2 h; Mean; read-out: EMD 121974 Concentrations, Mean
- Procedure: Patients with solid tumors received a continuous infusion of 1 mg/h, 2 mg/h, 4 mg/h, 8 mg/h or 12 mg/h. with a weekly change of infusion bag. Blood samples were taken on Day 1 (first dose) at pre-dose and 2 h after start of infusion and then weekly just before change of infusion bag and 2 hours thereafter for the first 4 weeks. The following pharmacokinetic parameters were derived at Merck KGaA. […] From Css and t1/2 the PK parameters CL, ke and V were calculated as follows: […]
ENDPOINT NAME: level at 2 h

// query Fill in reported level at 2 h for this entry: CC(C)[C@H]1C(=O)N[C@@H](CCCN=C(N)N)C(=O)NCC(=O)N[C@@H](CC(=O)O)C(=O)N[C@H](Cc2ccccc2)C(=O)N1C [Cilengitide, cyclo-(Arg-Gly-Asp-DPhe-NMeVal)]
// result 162 ng/mL

* * *

- TEST: Continuous infusion study pharmacokinetics (plasma)
- Type: in vivo, human
- CONDITION LABEL: human, plasma, iv, 8 mg/h, Rate 8 mg/h; 338 h; Mean; read-out: EMD 121974 Concentrations, Mean
ENDPOINT NAME: level at 338 h (ng/mL)
Unit ng/mL implied. Number only.

// query Fill in reported level at 338 h for this entry: CC(C)[C@H]1C(=O)N[C@@H](CCCN=C(N)N)C(=O)NCC(=O)N[C@@H](CC(=O)O)C(=O)N[C@H](Cc2ccccc2)C(=O)N1C [Cilengitide, cyclo-(Arg-Gly-Asp-DPhe-NMeVal)]
// result 972

* * *

- TEST: Continuous infusion study pharmacokinetics (plasma)
- Format: in vivo, human
- CONDITION LABEL: human, plasma, intravenous, range of dose-group means, 1-12 mg/h; read-out: mean clearance
ENDPOINT NAME: clearance

// query Fill in reported clearance for this entry: CC(C)[C@H]1C(=O)N[C@@H](CCCN=C(N)N)C(=O)NCC(=O)N[C@@H](CC(=O)O)C(=O)N[C@H](Cc2ccccc2)C(=O)N1C [Cilengitide, cyclo-(Arg-Gly-Asp-DPhe-NMeVal)]
// result 95.3 to 139 mL/min

The reported numbers originate from patent US20120130146A1.
